- measurement-target: vWF-cleaving protease (Homo sapiens)
- Construct: Purification of Protease from Plasma; from tissue; host or cells: plasma (fibrinogen removed before chromatography)
- Sequence (Q76LX8 75-1427): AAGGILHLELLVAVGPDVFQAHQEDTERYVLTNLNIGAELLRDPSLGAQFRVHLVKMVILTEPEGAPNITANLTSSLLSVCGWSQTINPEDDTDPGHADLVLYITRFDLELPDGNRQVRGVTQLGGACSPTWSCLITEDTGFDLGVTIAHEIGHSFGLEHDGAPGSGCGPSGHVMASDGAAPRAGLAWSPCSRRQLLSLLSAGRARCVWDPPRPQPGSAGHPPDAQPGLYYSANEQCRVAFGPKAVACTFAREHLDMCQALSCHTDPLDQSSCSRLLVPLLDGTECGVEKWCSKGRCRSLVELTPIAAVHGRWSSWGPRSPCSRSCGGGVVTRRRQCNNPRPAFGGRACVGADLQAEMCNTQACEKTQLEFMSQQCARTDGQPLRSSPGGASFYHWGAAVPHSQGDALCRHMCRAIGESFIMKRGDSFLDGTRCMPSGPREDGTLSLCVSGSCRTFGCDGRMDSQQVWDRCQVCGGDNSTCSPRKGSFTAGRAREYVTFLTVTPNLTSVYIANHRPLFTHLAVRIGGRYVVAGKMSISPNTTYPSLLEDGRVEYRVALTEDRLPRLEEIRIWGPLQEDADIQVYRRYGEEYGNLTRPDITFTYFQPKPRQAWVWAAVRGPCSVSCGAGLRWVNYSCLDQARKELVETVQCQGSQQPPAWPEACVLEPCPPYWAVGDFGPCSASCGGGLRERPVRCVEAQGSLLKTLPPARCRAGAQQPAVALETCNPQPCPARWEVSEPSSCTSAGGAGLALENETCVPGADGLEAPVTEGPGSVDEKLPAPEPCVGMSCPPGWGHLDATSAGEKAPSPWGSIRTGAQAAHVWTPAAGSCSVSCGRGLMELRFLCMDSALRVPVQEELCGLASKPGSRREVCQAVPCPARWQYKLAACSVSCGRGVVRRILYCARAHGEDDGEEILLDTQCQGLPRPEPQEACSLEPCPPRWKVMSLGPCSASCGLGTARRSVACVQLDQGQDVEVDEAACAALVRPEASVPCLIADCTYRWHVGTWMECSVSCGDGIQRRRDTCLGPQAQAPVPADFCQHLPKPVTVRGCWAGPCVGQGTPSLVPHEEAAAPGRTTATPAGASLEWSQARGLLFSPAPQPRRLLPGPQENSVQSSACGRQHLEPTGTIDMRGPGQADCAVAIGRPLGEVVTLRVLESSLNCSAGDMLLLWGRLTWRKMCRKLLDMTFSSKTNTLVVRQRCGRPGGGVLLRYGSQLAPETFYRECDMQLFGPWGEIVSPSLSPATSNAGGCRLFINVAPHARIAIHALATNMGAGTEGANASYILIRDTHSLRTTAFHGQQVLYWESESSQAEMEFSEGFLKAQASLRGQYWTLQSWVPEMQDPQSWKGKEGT
- assay-overview: Influence of metal ions on the activity of the vWF-cleaving protease
- Type: biochemical
- measurement-setup: 95 μl protease preincubated 15 minutes at 37° C. with 5 μl of 0.2 M salt solution

{"columns": ["compound-smiles", "activation of the protease by metal ions"],
 "data": [
  ["[Cl][Ni][Cl]", "no activation"],
  ["[Ba+2].[Cl-].[Cl-]", "substantial activation"],
  ["CC(=O)[O-].CC(=O)[O-].[Cd+2]", "no activation"],
  ["[Cl][Mn][Cl]", "no activation"],
  ["[Ca+2].[Cl-].[Cl-]", "substantial activation"],
  ["O=S(=O)([O-])[O-].[Co+2]", "no activation"],
  ["[Cl-].[Cl-].[Zn+2]", "no activation"],
  ["O=S(=O)([O-])[O-].[Cu+2]", "no activation"],
  ["[Cl-].[Cl-].[Sr+2]", "substantial activation"]
]}
